Test system: Hyperlipemia Model of SD Rat
Experiment: Screening in the hyperlipemia model of SD rat (fat emulsion by gavage; serum lipids)
Format: in vivo
Conditions: hyperlipemia SD rats, 40 mg/kg, dosed 21 days, X ± SD
Attribute: CHO1 Concentration (serum cholesterol)
Answer format: numeric, mmol/L implied, no suffix.

Task item: State, in one line, measured CHO1 Concentration (serum cholesterol) of `CC(C)(Oc1ccc(Cl)cc1)C(=O)NCC(=O)c1ccc(OC(=O)C(C)(C)Oc2ccc(Cl)cc2)cc1`
Reply: 9.73

Task item: Retrieve CHO1 Concentration (serum cholesterol) measured for `Cc1ccc(C)c(OCCCC(C)(C)C(=O)NCC(=O)c2ccc(OC(=O)C(C)(C)CCCOc3cc(C)ccc3C)cc2)c1` and print it.
Reply: 16.37

Task item: Consider the compound Cc1cc(C(=O)CCNC(=O)C(C)(CCCOc2cc(Cl)ccc2C)C(C)C)ccc1O (stereo not shown) and give its recorded CHO1 Concentration (serum cholesterol).
Reply: 15.00

Task item: Report CHO1 Concentration (serum cholesterol), nothing else, for this compound: `Cc1ccc(C)c(OCCCC(C)(C)C(=O)NCC(=O)c2ccc(O)cc2)c1`
Reply: 15.30

Task item: Please give measured CHO1 Concentration (serum cholesterol) of the following entry: `Cc1ccc(C)c(OCCCC(C)(C)C(=O)NCC(=N)c2ccc(O)c(Cl)c2)c1`
Reply: 10.54

Task item: Indicate its recorded CHO1 Concentration (serum cholesterol); the compound in question is `CC(C)(Oc1ccc(CCNC(=O)c2ccc(Cl)cc2)cc1)C(=O)NCC(=O)c1ccc(O)cc1`
Reply: 14.84

Task item: Using known records, supply CHO1 Concentration (serum cholesterol) for `COc1ccc(OCCCC(C)(C)C(=O)NCC(=O)c2ccc(O)c(C)c2)cc1C`
Reply: 20.66
